For each entry below, report its IC50 value.
System: pERK in NCI-H358 cells
ASSAY: Cell-based pERK HTRF assay (pERK inhibition in H358 cells)
ASSAY_CONTEXT: Homo sapiens, NCI-H358, 0.5 h, 30 min incubation

C[C@@H]1[C@H](N(C)c2nc(OC[C@@]34CCCN3C[C@H](F)C4)nc3c(F)c(-c4ccc(F)c5sc(N)c(C#N)c45)c(C(F)(F)F)cc23)CCN1C(=O)[C@@H](F)Cl (atropisomer, axis not shown): 0.1 to 1 µM
C=CC(=O)N1CC[C@@H](N(C)c2nc(O[C@@H](C)[C@@H]3C(=C(F)F)CCN3C)nc3c(F)c(-c4ccc(F)c5sc(N)c(C#N)c45)c(Cl)cc23)[C@H]1C: 0.1 to 1 µM
C=CC(=O)N1CC[C@@H](N(C)c2nc(OC[C@@H]3CCCN3CC)nc3c(F)c(-c4ccc(F)c5sc(N)c(C#N)c45)c(C(F)(F)F)cc23)[C@@H]1C: < 0.1 µM
C[C@@H]1CN(c2nc(OC[C@@]34CCCN3C[C@H](F)C4)nc3c(F)c(-c4ccc(F)c5sc(N)c(C#N)c45)c(Cl)cc23)[C@@H](C)CN1C(=O)/C=C/c1nc(C(C)(F)F)no1: 0.1 to 1 µM

Continue with the next compound.
Would you kindly share the measured IC50 for `C=CC(=O)N1CC[C@@H](N(C)c2nc(OC[C@@]34CCCN3C[C@H](F)C4)nc3c(F)c(-c4ccc(F)c5sc(N)c(C#N)c45)ccc23)[C@@H]1C` ?
< 0.1 µM

----------
For each entry below, report its pIC50 value.
Test system: pERK in NCI-H358 cells
ASSAY: Cell-based pERK HTRF assay (pERK inhibition in H358 cells)
ASSAY_CONTEXT: Homo sapiens, NCI-H358, 0.5 h, 30 min incubation
pIC50: −log10 of the molar value.

C=CC(=O)N1CC[C@@H](N(C)c2nc(OC[C@@]34CCCN3C[C@H](F)C4)nc3c(F)c(-c4nc(N)cc(C)c4C(F)(F)F)c(Cl)cc23)[C@H]1C [Compound 78]: > 7.00

Items follow; give pIC50 for each.
1. CCN(c1nc(OC[C@@]23CCCN2C[C@H](F)C3)nc2c(F)c(-c3ccc(F)c4sc(N)c(C#N)c34)c(C(F)(F)F)cc12)[C@H]1CCN(C(=O)[C@@H](F)Cl)C1 [Compound 186]
2. C=CC(=O)N1CCC(N(C)c2nc(OC[C@@H]3CCCN3C)nc3c(F)c(-c4nc(N)cc(C)c4C(F)(F)F)c(Cl)cc23)[C@H]1C (some centres unmarked) [Compound 9]
3. C=CC(=O)N1CC[C@@H](N(C)c2nc(OC[C@@H]3C[C@@H](F)CN3C)nc3c(F)c(-c4ccc(F)c5sc(N)c(C#N)c45)c(C(F)(F)F)cc23)[C@@H]1C [Compound 32]
4. C=CC(=O)N1CCC(N(C)c2nc(OC[C@@]34CCCN3C[C@H](F)C4)nc3c(F)c(-c4ccc(F)c5sc(N)c(C#N)c45)c(C(F)(F)F)cc23)[C@H]1CC (some centres unmarked) [Compound 3]

> 7.00
6.00 to 7.00
> 7.00
> 7.00

----------
MEASURED_ON: Avi-KRAS G12C (1-169) GppNHp/RAF1 RBD-3×FLAG (52-151) (Homo sapiens, UniProt P01116, G12C)
Construct: Avi-KRAS G12C (1-169) GppNHp; Avi (N)
Sequence (P01116 1-169 isoform P01116-2 G12C limits assumed): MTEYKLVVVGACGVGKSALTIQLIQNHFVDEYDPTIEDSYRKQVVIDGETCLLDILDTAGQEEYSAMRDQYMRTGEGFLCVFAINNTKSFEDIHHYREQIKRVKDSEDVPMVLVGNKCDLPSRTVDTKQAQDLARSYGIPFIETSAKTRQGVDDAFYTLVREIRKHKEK
ASSAY: Raf1 RBD-KRAS G12C-GppNHp disruption assay (protein:protein interaction HTRF)
MEASUREMENT_KIND: IC50

C=CC(=O)N1C2CCC1CN(c1nc(OC[C@@]34CCCN3C[C@H](F)C4)nc3c(F)c(-c4ccc(F)c5sc(N)c(C#N)c45)c(C(F)(F)F)cc13)C2: < 500 nM

Items follow; give IC50 for each.
1. C=CC(=O)N1C[C@H]2CC[C@@H]1CN2c1nc(OC[C@@]23CCCN2C[C@H](F)C3)nc2c(F)c(-c3ccc(F)c4sc(N)c(C#N)c34)c(C(F)(F)F)cc12
2. C=CC(=O)N1CC[C@@H](N(CC)c2nc(OC[C@@]34CCCN3C[C@H](F)C4)nc3cc(-c4ccc(F)c5sc(N)c(C#N)c45)c(C#N)cc23)[C@H]1C
3. C=CC(=O)N1CC[C@@H](N(CC)c2nc(OC[C@@H]3CC4(CC4)CN3C)nc3c(F)c(-c4ccc(F)c5sc(N)c(C#N)c45)c(Cl)cc23)[C@H]1C (atropisomer, axis not shown) [Compound 120]
4. C=CC(=O)N1CC[C@@H](N(C)c2nc(OC[C@@H]3CC4(CC4)CN3C)nc3c(F)c(-c4ccc(F)c5sc(N)c(C#N)c45)c(C(F)(F)F)cc23)[C@@H]1C [Compound 112]

1: 500 to 5000 nM; 2: < 500 nM; 3: < 500 nM; 4: 500 to 5000 nM

----------
Tested on: pERK in NCI-H358 cells
ASSAY: Cell-based pERK HTRF assay (pERK inhibition in H358 cells)
ASSAY_CONTEXT: Homo sapiens, NCI-H358, 0.5 h, 30 min incubation
pIC50: −log10 of the molar value.
MEASUREMENT_KIND: pIC50

Solved cases (4 shown):
C=CC(=O)N1CC[C@H](N(CC)c2nc(OC[C@@]34CCCN3C[C@H](F)C4)nc3c(F)c(-c4ccc(F)c5sc(N)c(C#N)c45)c(C(F)(F)F)cc23)C1 (atropisomer, axis not shown) [Compound 171]: > 7.00
C=CC(=O)N1C[C@H]2C[C@@H]1CN2c1nc(OC[C@@]23CCCN2C[C@H](F)C3)nc2c(F)c(-c3ccc(F)c4sc(N)c(C#N)c34)c(C(F)(F)F)cc12 [Compound 37]: 6.00 to 7.00
C=CC(=O)N1CC[C@@H](N(C)c2nc(OC[C@@H]3CC(=C(F)F)CN3C)nc3c(F)c(-c4ccc(F)c5sc(N)c(C#N)c45)c(Cl)cc23)[C@H]1C [Compound 202]: 6.00 to 7.00
C=CC(=O)N1CCC(N(CC)c2nc(OC[C@@]34CCCN3C[C@H](F)C4)nc3c(F)c(-c4ccc(F)c5sc(N)c(C#N)c45)c(Cl)cc23)[C@H]1CC (some centres unmarked) [Compound 12]: > 7.00

Requested read-out pIC50, target or system pERK in NCI-H358 cells, entry C=CC(=O)N1C[C@H](N(C)c2nc(OC[C@@H]3CCCN3C)nc3c(F)c(-c4ccc(F)c5sc(N)c(C#N)c45)c(C(F)(F)F)cc23)C[C@H]1C [Compound 147]
> 7.00

----------
For each entry below, report its pIC50 value.
MEASURED_ON: Avi-KRAS G12C (1-169) GppNHp/RAF1 RBD-3×FLAG (52-151) (Homo sapiens, UniProt P01116, G12C)
Construct: Avi-KRAS G12C (1-169) GppNHp; Avi (N)
ASSAY: Raf1 RBD-KRAS G12C-GppNHp disruption assay (protein:protein interaction HTRF)
Text: Biological Example 2: Disrupting KRAS G12C-Effector Binding (Protein: Protein Interaction HTRF Assay) A protein: protein interaction (PPI) Homogeneous Time Resolved Fluorescence (HTRF) assay was used to determine the effectiveness of compounds of the present disclosure in disrupting KRAS G12C protein and effector (RAF1 Ras Binding Domain (RBD)) binding. […]
pIC50: −log10 of the molar value.

Solved cases (2 shown):
C=CC(=O)N1CC[C@@H](N(C)c2nc(OC[C@@]34CCCN3C[C@H](OC)C4)nc3c(F)c(-c4ccc(F)c5sc(N)c(C#N)c45)c(Cl)cc23)[C@H]1C: > 6.30
C=CC(=O)N1CC[C@@H](N(C)c2nc(OC[C@@H]3C[C@@H](OC)CN3CC)nc3c(F)c(-c4ccc(F)c5sc(N)c(C#N)c45)c(C(F)(F)F)cc23)[C@@H]1C: > 6.30

Continue with the next molecule.
Would you kindly share the measured pIC50 for `C=CC(=O)N1CC[C@@H](N(C)c2nc(OC[C@@H]3C[C@@H](OC)CN3C)nc3c(F)c(-c4ccc(F)c5sc(N)c(C#N)c45)c(Cl)cc23)[C@@H]1C` ?
> 6.30

----------
Test system: pERK in NCI-H358 cells
ASSAY: Cell-based pERK HTRF assay (pERK inhibition in H358 cells)
ASSAY_CONTEXT: Homo sapiens, NCI-H358, 0.5 h, 30 min incubation
MEASUREMENT_KIND: IC50

Solved cases (5 shown):
CCN(c1nc(OC[C@@H]2C[C@@H](OC)CN2C)nc2c(F)c(-c3ccc(F)c4sc(N)c(C#N)c34)c(C(F)(F)F)cc12)[C@@H]1CCN(C(=O)[C@@H](F)Cl)[C@@H]1C: 100 to 1000 nM
C=CC(=O)N1CC[C@@H](N(C)c2nc(OC[C@@H]3[C@@H](OC)CCN3C)nc3c(F)c(-c4ccc(F)c5sc(N)c(C#N)c45)c(C(F)(F)F)cc23)[C@H]1C: < 100 nM
C=CC(=O)N1CC[C@@H](N(C)c2nc(OC[C@@H]3C[C@@H](OC)CN3CC)nc3c(F)c(-c4ccc(F)c5sc(N)c(C#N)c45)c(C(F)(F)F)cc23)[C@H]1C: < 100 nM
C=CC(=O)N1CC[C@@H](N(CC)c2nc(OC[C@@]34CCCN3C[C@H](F)C4)nc3cc(-c4ccc(F)c5sc(N)c(C#N)c45)c(C#N)cc23)[C@@H]1CC: 100 to 1000 nM
C[C@@H]1[C@H](N(C)c2nc(OC[C@@]34CCCN3C[C@H](F)C4)nc3c(F)c(-c4ccc(F)c5sc(N)c(C#N)c45)c(C(F)(F)F)cc23)CCN1C(=O)[C@H](F)Cl (atropisomer, axis not shown; (aS)): 100 to 1000 nM

Items follow; give IC50 for each.
1. C=CC(=O)N1C[C@H](N(C)c2nc(OC[C@@]34CCCN3C[C@H](F)C4)nc3cc(-c4ccc(F)c5sc(N)c(C#N)c45)c(F)cc23)C[C@@H]1C
2. C=CC(=O)N1CC[C@@H](N(CC)c2nc(OC[C@@H]3CCCN3C)nc3c(F)c(-c4ccc(F)c5sc(N)c(C#N)c45)c(C(F)(F)F)cc23)[C@H]1C
3. C=CC(=O)N1CC[C@@H](N(C)c2nc(O[C@@H](C)[C@@H]3C(=C)CCN3C)nc3c(F)c(-c4ccc(F)c5sc(N)c(C#N)c45)c(C(F)(F)F)cc23)[C@H]1C
4. C=CC(=O)N1CC[C@@H](N(CC)c2nc(OC[C@@]34CCCN3C[C@H](F)C4)nc3cc(-c4ccc(F)c5sc(N)c(C#N)c45)c(F)cc23)[C@H]1CC
5. C=CC(=O)N1CC[C@@H](N(CC)c2nc(OC[C@@]34CCCN3C[C@H](F)C4)nc3c(F)c(-c4ccc(F)c5sc(N)c(C#N)c45)c(C(F)(F)F)cc23)[C@H]1CC

["< 100 nM", "< 100 nM", "< 100 nM", "100 to 1000 nM", "< 100 nM"]
